B1: DnaJ homolog subfamily C member 2, residues 451 to 503; numbered along this chain, Q99543 (parent)
chain: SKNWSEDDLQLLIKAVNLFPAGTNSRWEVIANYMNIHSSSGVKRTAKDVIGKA

Variants of: B1
Test Protocol: abundance fitness (aPCA) (normalised: wild type 0, dead -1); higher = more abundant; growth selection in yeast, the domain comes from the species named
Particulars: Homo sapiens
Assay Readout: abundance fitness
Would you mind answering with just the numeric figure?

Some entries whose results are on file:
A21C : -0.117
V49W : -0.758
N35W : -0.897
G51P : -0.194
S25I : -0.788
F19P : -1.11
L12M : -0.223
L11G : -0.819
A31M : -0.66
N24A : 0.14

Query block: Give the reported abundance fitness for this variant. F19H
Result block: -0.093

Query block: Note abundance fitness for the variant shown: K47S
Result block: 0.033

Query block: Look up and report measured abundance fitness for this entry: K14L
Result block: -0.317
